subject-of-test: HiBiT tagged PARP14 (Homo sapiens, UniProt Q460N5)
Construct: engineered to contain a HiBiT tag on both alleles of the PARP14 gene; endogenous in cells; host or cells: Jurkat cells stably transfected with LgBiT (Promega), PARP14 locus edited by CRISPR/Cas9
Sequence (Q460N5 whole entry): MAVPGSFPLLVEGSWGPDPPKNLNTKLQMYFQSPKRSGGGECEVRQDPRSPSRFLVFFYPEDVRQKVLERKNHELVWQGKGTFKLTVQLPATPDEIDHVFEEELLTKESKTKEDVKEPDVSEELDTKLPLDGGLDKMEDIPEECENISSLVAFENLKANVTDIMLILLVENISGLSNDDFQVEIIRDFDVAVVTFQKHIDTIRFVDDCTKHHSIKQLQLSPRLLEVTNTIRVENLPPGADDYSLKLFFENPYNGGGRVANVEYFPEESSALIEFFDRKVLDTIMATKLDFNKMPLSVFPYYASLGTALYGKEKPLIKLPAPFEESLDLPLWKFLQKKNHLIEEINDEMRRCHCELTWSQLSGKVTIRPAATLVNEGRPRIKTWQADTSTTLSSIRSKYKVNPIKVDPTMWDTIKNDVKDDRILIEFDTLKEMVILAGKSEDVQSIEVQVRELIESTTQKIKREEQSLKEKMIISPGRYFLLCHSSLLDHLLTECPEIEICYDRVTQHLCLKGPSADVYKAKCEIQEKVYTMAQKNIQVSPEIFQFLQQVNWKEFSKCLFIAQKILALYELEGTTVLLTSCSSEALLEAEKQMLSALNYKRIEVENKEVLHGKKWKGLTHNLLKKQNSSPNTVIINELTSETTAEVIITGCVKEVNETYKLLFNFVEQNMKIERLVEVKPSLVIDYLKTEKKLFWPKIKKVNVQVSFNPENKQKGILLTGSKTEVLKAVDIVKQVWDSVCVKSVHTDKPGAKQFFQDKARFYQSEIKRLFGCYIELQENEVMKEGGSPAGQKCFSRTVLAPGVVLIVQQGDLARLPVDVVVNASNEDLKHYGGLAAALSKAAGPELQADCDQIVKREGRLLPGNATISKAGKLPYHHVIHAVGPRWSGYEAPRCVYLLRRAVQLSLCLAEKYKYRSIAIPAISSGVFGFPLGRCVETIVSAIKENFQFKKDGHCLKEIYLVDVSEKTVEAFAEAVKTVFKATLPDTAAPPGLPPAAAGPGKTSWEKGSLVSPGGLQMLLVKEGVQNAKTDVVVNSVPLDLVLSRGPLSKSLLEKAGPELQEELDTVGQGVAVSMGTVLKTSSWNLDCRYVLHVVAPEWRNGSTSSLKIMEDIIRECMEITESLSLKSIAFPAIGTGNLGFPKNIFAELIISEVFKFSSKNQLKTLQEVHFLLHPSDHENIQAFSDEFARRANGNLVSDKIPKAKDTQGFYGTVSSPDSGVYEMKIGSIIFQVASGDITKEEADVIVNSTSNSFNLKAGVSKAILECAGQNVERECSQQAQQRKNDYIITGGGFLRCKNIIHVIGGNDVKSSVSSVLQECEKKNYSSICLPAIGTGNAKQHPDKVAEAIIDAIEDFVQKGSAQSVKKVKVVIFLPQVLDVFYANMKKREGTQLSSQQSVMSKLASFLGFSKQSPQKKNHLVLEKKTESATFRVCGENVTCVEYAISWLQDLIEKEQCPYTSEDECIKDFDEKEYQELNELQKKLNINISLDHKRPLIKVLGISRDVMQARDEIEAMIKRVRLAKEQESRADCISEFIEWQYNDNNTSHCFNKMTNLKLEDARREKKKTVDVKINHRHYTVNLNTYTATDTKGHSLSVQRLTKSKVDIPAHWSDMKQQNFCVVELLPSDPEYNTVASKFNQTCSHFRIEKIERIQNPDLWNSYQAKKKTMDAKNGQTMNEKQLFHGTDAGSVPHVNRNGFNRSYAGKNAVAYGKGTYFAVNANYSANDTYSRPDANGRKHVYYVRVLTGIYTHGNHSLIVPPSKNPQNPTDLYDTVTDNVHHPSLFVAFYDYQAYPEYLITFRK
method-summary: HiBiT assay for the degradation of PARP14 (HiBiT tagged PARP14 in LgBiT expressing Jurkat cells, 2 or 24 hours)
Assay type: cell-based
stated-conditions: Assay B (Example B): HiBiT tagged PARP14 degradation in LgBiT expressing Jurkat cells, read-out: DC50
Counter-ions that a name gives are not always drawn.
readout-kind: DC50

Example entries begin here.
{"molecule": "O=C1CCC(Nc2ccc(N3CCN(CCN4CCC(COc5cc(F)c6c(=O)[nH]c(CC7CCC7)nc6c5)CC4)CC3)c(F)c2)C(=O)N1 (stereo not drawn) [Example 106, formate]", "subject-of-test": "HiBiT tagged PARP14 (Homo sapiens, UniProt Q460N5)", "readout-kind": "DC50", "reported-result": "< 30 nM"}
{"molecule": "O=C1CCC(Nc2ccc(N3CCC(N4CCC(COc5cc(F)c6c(=O)[nH]c(COC7CCOCC7)nc6c5)CC4)CC3)c(F)c2)C(=O)N1 (stereo not drawn) [Example 135, formate]", "subject-of-test": "HiBiT tagged PARP14 (Homo sapiens, UniProt Q460N5)", "readout-kind": "DC50", "reported-result": "< 30 nM"}

Prompt: DC50 of O=C1CCC(Nc2ccc(C(=O)N3CCN(CCN4CCC(COc5cc(F)c6c(=O)[nH]c(CSC7CCOCC7)nc6c5)CC4)CC3)cc2)C(=O)N1 (stereo not drawn) on HiBiT tagged PARP14 (Homo sapiens, UniProt Q460N5)?
Response: < 30 nM

Prompt: DC50 of O=C1CCC(N2C(=O)c3ccc(N4CCC(N5CCC(COc6cc(F)c7c(=O)[nH]c(CSC8CCOCC8)nc7c6)CC5)CC4)cc3C2=O)C(=O)N1 (stereo not drawn) on HiBiT tagged PARP14 (Homo sapiens, UniProt Q460N5)?
Response: < 30 nM

Prompt: DC50 of O=C1CCC(Nc2ccc(N3CCC(N4CCC(CN5CCC(COc6cc(F)c7c(=O)[nH]c(CSC8CCOCC8)nc7c6)CC5)CC4)CC3)c(F)c2)C(=O)N1 (stereo not drawn) on HiBiT tagged PARP14 (Homo sapiens, UniProt Q460N5)?
Response: < 30 nM

Prompt: DC50 of COc1cc(N2CCC(N3CC(N4CCC(COc5cc(F)c6c(=O)[nH]c(CSC7CCOCC7)nc6c5)CC4)C3)CC2)c(F)cc1NC1CCC(=O)NC1=O (stereo not drawn) on HiBiT tagged PARP14 (Homo sapiens, UniProt Q460N5)?
Response: < 30 nM

---

Measured DC50 by item
subject-of-test: HiBiT tagged PARP14 (Homo sapiens, UniProt Q460N5)
Construct: engineered to contain a HiBiT tag on both alleles of the PARP14 gene; endogenous in cells; host or cells: Jurkat cells stably transfected with LgBiT (Promega), PARP14 locus edited by CRISPR/Cas9
method-summary: HiBiT assay for the degradation of PARP14 (HiBiT tagged PARP14 in LgBiT expressing Jurkat cells, 2 or 24 hours)
Assay type: cell-based
stated-conditions: Assay B (Example B): HiBiT tagged PARP14 degradation in LgBiT expressing Jurkat cells, read-out: DC50
Where a name gives a salt, the structure may show the parent alone.

Example entries begin here.
{"compound": "O=C1CCC(Nc2ccc(N3CCC4(CCN(CCOc5cc(F)c6c(=O)[nH]c(CSC7CCOCC7)nc6c5)CC4)CC3)c(F)c2)C(=O)N1 (stereo not drawn) [Example 215]", "DC50": "< 30 nM"}
{"compound": "O=C1CCC(Nc2ccc(N3CCC(C(=O)N4CCC(N5CCC(COc6cc(F)c7c(=O)[nH]c(CSC8CCOCC8)nc7c6)CC5)CC4)CC3)c(F)c2)C(=O)N1 (stereo not drawn) [Example 173, formate]", "DC50": "< 30 nM"}
{"compound": "O=C1CCC(Nc2ccc(N3CCN(CCN4CCC(COc5ccc6c(=O)[nH]c(CSC7CCOCC7)nc6c5)CC4)CC3)c(F)c2)C(=O)N1 (stereo not drawn) [Example 206]", "DC50": "< 30 nM"}
{"compound": "O=C1CCN(c2ccc(N3CCC(N4CCC(COc5cc(F)c6c(=O)[nH]c(CSC7CCOCC7)nc6c5)CC4)CC3)c(F)c2)C(=O)N1 [Example 158, formate]", "DC50": "< 30 nM"}
{"compound": "Cn1nc(N2CCC(=O)NC2=O)c2ccc(C3CCN(CCOc4cc(F)c5c(=O)[nH]c(CSC6CCOCC6)nc5c4)CC3)cc21 [Example 186]", "DC50": "< 30 nM"}

Now, please, on to the next compound.
Prompt: // lookup DC50 for O=C1CCC(Nc2ccc(N3CCC(N4CCC(N5CCC(COc6cc(F)c7c(=O)[nH]c(CSC8CCOCC8)nc7c6)CC5)CC4)CC3)c(F)c2)C(=O)N1 (stereo not drawn) [Example 228, diformate]
Response: < 30 nM
